Experimental details: Ex vivo biodistribution in mice bearing LNCaP tumor xenografts
Parameters: species or system mouse (male NOD-scid IL2Rg^null (NSG))
Measurement context: mouse, tail, iv, 1 h post-injection, mean ± SD; read-out: Tail uptake
Test readout: tissue uptake at 1 h (%ID/g)
Numbers only, in %ID/g.

## Input Which measured tissue uptake at 1 h value corresponds to O=C(O)CCC[C@H](NC(=O)N[C@@H](CCCCNC(=O)[C@H](Cc1c2ccccc2cc2ccccc12)NC(=O)[C@H]1CC[C@H](CNC(=O)[C@H](CCCCNC(=O)c2ccc(F)nc2)NC(=O)CN(CC(=O)O)CC(=O)O)CC1)C(=O)O)C(=O)O [^18F-KL01040] ?
## Output 1.31

---

Can you tell me tissue uptake at 1 h for the items I'm about to list?
Experimental details: Ex vivo biodistribution in mice bearing LNCaP tumor xenografts
Set-up: species or system mouse (male NOD-scid IL2Rg^null (NSG))
Measurement context: mouse, lacrimal glands, iv, 1 h post-injection, mean ± SD; read-out: Lacrimal Glands uptake
Numbers only, in %ID/g.

Field: example entries. Status: answers known.
Compound	Test readout	Reported measurement
O=C(O)CCC[C@H](NC(=O)N[C@@H](CCCCNC(=O)[C@H](Cc1c2ccccc2cc2ccccc12)NC(=O)[C@H]1CC[C@H](CNC(=O)CNC(=O)[C@H](CCCCNC(=O)c2ccc(F)nc2)NC(=O)CN(CC(=O)O)CC(=O)O)CC1)C(=O)O)C(=O)O [^18F-KL01130]	tissue uptake at 1 h	0.1
O=C(O)CC[C@H](NC(=O)N[C@@H](CCCCNC(=O)[C@H](Cc1c2ccccc2cc2ccccc12)NC(=O)[C@H]1CC[C@H](CNC(=O)[C@H](CCNC(=O)c2ccc(F)nc2)NC(=O)CCC(=O)N(CC(=O)O)CC(=O)O)CC1)C(=O)O)C(=O)O [^18F-KL01120]	tissue uptake at 1 h	0.06

Let us move to another entry and its tissue uptake at 1 h.
## Input So what's the measured tissue uptake at 1 h for this one? O=C(O)CCC[C@H](NC(=O)N[C@@H](CCCCNC(=O)[C@H](Cc1c2ccccc2cc2ccccc12)NC(=O)[C@H]1CC[C@H](CNC(=O)[C@H](CCCCNC(=O)c2ccc(F)nc2)NC(=O)CN(CC(=O)O)CC(=O)O)CC1)C(=O)O)C(=O)O [^18F-KL01040]
## Output 0.23

---

Exercise: state measured tissue uptake at 1 h for each of the compounds provided.
Experimental details: Ex vivo biodistribution in mice bearing LNCaP tumor xenografts
Parameters: species or system mouse (male NOD-scid IL2Rg^null (NSG))
Measurement context: mouse, muscle, iv, 1 h post-injection, mean ± SD; read-out: Muscle uptake
Give bare numbers, in %ID/g.

Compound	Reported measurement
O=C(O)CC[C@H](NC(=O)N[C@@H](CCCCNC(=O)[C@H](Cc1c2ccccc2cc2ccccc12)NC(=O)[C@H]1CC[C@H](CNC(=O)[C@H](CCNC(=O)c2ccc(F)nc2)NC(=O)CCC(=O)N(CC(=O)O)CC(=O)O)CC1)C(=O)O)C(=O)O [^18F-KL01120]	0.9

Consider the following items and state reported tissue uptake at 1 h for each.
1. O=C(O)CCC[C@H](NC(=O)N[C@@H](CCCCNC(=O)[C@H](Cc1c2ccccc2cc2ccccc12)NC(=O)[C@H]1CC[C@H](CNC(=O)[C@H](CCCCNC(=O)c2ccc(F)nc2)NC(=O)CN(CC(=O)O)CC(=O)O)CC1)C(=O)O)C(=O)O [^18F-KL01040]
2. O=C(O)CCC[C@H](NC(=O)N[C@@H](CCCCNC(=O)[C@H](Cc1c2ccccc2cc2ccccc12)NC(=O)[C@H]1CC[C@H](CNC(=O)CNC(=O)[C@H](CCCCNC(=O)c2ccc(F)nc2)NC(=O)CN(CC(=O)O)CC(=O)O)CC1)C(=O)O)C(=O)O [^18F-KL01130]

## Output
[0.29, 0.34]

---

Experimental details: Ex vivo biodistribution in mice bearing LNCaP tumor xenografts
Parameters: species or system mouse (male NOD-scid IL2Rg^null (NSG))
Measurement context: mouse, seminal gland, iv, 1 h Blocked (co-injection of 2-PMPA, 0.5 mg), mean ± SD; read-out: Seminal Gland uptake
Please provide measured tissue uptake at 1 h for the entries that follow.
Give bare numbers, in %ID/g.

Compound	Reported measurement
O=C(O)CC[C@H](NC(=O)N[C@@H](CCCCNC(=O)[C@H](Cc1c2ccccc2cc2ccccc12)NC(=O)[C@H]1CC[C@H](CNC(=O)[C@H](CCNC(=O)c2ccc(F)nc2)NC(=O)CCC(=O)N(CC(=O)O)CC(=O)O)CC1)C(=O)O)C(=O)O [^18F-KL01120]	0.76

## Input So what's the measured tissue uptake at 1 h for this one? O=C(O)CCC[C@H](NC(=O)N[C@@H](CCCCNC(=O)[C@H](Cc1c2ccccc2cc2ccccc12)NC(=O)[C@H]1CC[C@H](CNC(=O)CNC(=O)[C@H](CCCCNC(=O)c2ccc(F)nc2)NC(=O)CN(CC(=O)O)CC(=O)O)CC1)C(=O)O)C(=O)O [^18F-KL01130]
## Output 0.22

---

Experimental details: Ex vivo biodistribution in mice bearing LNCaP tumor xenografts
Parameters: species or system mouse (male NOD-scid IL2Rg^null (NSG))
Measurement context: mouse, large intestine, iv, 1 h Blocked (co-injection of 2-PMPA, 0.5 mg), mean ± SD; read-out: Large Intestine uptake
Field: tissue uptake at 1 h. Provide a value for each of the molecules that follow.
Output should be the measured figure followed by the unit it is expressed in.

Molecule	tissue uptake at 1 h
O=C(O)CCC[C@H](NC(=O)N[C@@H](CCCCNC(=O)[C@H](Cc1c2ccccc2cc2ccccc12)NC(=O)[C@H]1CC[C@H](CNC(=O)CNC(=O)[C@H](CCCCNC(=O)c2ccc(F)nc2)NC(=O)CN(CC(=O)O)CC(=O)O)CC1)C(=O)O)C(=O)O [^18F-KL01130]	0.26 %ID/g

## Input What does the record list as tissue uptake at 1 h for O=C(O)CC[C@H](NC(=O)N[C@@H](CCCCNC(=O)[C@H](Cc1c2ccccc2cc2ccccc12)NC(=O)[C@H]1CC[C@H](CNC(=O)[C@H](CCNC(=O)c2ccc(F)nc2)NC(=O)CCC(=O)N(CC(=O)O)CC(=O)O)CC1)C(=O)O)C(=O)O [^18F-KL01120] ?
## Output 0.25 %ID/g

---

Experimental details: Ex vivo biodistribution in mice bearing LNCaP tumor xenografts
Parameters: species or system mouse (male NOD-scid IL2Rg^null (NSG))
Measurement context: mouse, liver, iv, 1 h Blocked (co-injection of 2-PMPA, 0.5 mg), mean ± SD; read-out: Liver uptake
Test readout: tissue uptake at 1 h (%ID/g)
Give bare numbers, in %ID/g.

Compound	Reported measurement
O=C(O)CC[C@H](NC(=O)N[C@@H](CCCCNC(=O)[C@H](Cc1c2ccccc2cc2ccccc12)NC(=O)[C@H]1CC[C@H](CNC(=O)[C@H](CCNC(=O)c2ccc(F)nc2)NC(=O)CCC(=O)N(CC(=O)O)CC(=O)O)CC1)C(=O)O)C(=O)O [^18F-KL01120]	0.59

Please find the next compound below.
## Input Value lookup for tissue uptake at 1 h; key = O=C(O)CCC[C@H](NC(=O)N[C@@H](CCCCNC(=O)[C@H](Cc1c2ccccc2cc2ccccc12)NC(=O)[C@H]1CC[C@H](CNC(=O)CNC(=O)[C@H](CCCCNC(=O)c2ccc(F)nc2)NC(=O)CN(CC(=O)O)CC(=O)O)CC1)C(=O)O)C(=O)O [^18F-KL01130]
## Output 0.67
